test summary: CEETOX_H295R_ESTRONE: CeeTox H295R High-throughput Steroidogenesis Assay for Estrone (AID 2283441);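 further: estrone secreted into medium measured by LC-MS/MS after dansyl derivatization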
condition details: actives raise or lower the signal
Activity calls are given as the source filed them. How the source made its calls: active means hit-call score of the fitted dose curve at least 0.9, where 1 is the maximum; inactive means score below 0.9.
Would you mind answering with one of these outcomes? active, inactive

QUERY: Which outcome was assigned to C[C@@H](Oc1ccc(CNC(=O)c2cccnc2Oc2ccc3c(c2)OCO3)c(F)c1)C(=O)O in this test?
RESULT: active

QUERY: What do you have for CCCCCCCCCCCCCCO ?
RESULT: inactive

Others:
QUERY: Which outcome was assigned to CCOc1ccc2[nH]cc(C(=O)NCc3ccccc3)c(=O)c2n1 in this test?
RESULT: inactive

QUERY: What do you have for CC[C@H](C)C(=O)O[C@H]1C[C@H](O)C=C2C=C[C@H](C)[C@H](CC[C@@H](O)C[C@@H](O)CC(=O)O)[C@H]21 ?
RESULT: inactive

QUERY: What do you have for CCCOc1ccc(S(=O)(=O)N2CCN(CC)CC2)cc1-c1nc2c(CC)n(Cc3ccccn3)nc2c(=O)[nH]1 ?
RESULT: inactive
